# ASSAYED_TARGET: FAAH (Homo sapiens, UniProt O00519)
# PROTOCOL: Assay Method 1: FAAH assay, 3H-anandamide hydrolysis in homogenate of T84 cells or SK-N-MC cells transfected with human FAAH
Where a name gives a salt, the structure may show the parent alone.
RESULT_TYPE: IC50 (µM)

| MOLECULE | RESULT_TYPE | OBSERVED |
| --- | --- | --- |
| OC(CNc1cc(-c2ccc(C(F)(F)F)c(Cl)c2)ncn1)c1ccccc1F (stereo not drawn) [Example 212] | IC50 | 0.065 |
| OC(CNc1cc(-c2ccc(Cl)c(Cl)c2)ncn1)c1ccccc1 (stereo not drawn) [Example 8] | IC50 | 0.074 |
| N#Cc1ccc(-c2cc(NC[C@H](O)c3ccccc3)ncn2)cc1F [Example 88, trifluoroacetic acid salt] | IC50 | 0.065 |

====

# ASSAYED_TARGET: FAAH (Homo sapiens)
# Sequence (O00519 1-579): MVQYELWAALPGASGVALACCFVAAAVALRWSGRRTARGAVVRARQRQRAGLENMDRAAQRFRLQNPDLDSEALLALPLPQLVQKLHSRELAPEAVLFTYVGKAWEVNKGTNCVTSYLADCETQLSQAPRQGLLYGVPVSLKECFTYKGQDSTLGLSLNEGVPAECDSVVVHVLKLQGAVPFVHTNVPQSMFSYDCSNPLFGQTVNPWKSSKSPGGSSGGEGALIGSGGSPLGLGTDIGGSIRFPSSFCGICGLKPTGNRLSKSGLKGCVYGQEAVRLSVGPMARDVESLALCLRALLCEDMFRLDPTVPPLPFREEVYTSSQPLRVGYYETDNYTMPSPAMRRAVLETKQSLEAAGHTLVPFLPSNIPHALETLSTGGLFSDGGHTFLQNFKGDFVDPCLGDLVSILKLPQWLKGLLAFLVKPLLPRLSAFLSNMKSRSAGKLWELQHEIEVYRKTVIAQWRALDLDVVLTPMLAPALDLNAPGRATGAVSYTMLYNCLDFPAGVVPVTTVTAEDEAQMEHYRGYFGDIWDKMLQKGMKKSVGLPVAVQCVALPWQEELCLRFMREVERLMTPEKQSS
# PROTOCOL: Assay Method 1: FAAH assay, 3H-anandamide hydrolysis in homogenate of T84 cells or SK-N-MC cells transfected with human FAAH
Counter-ions that a name gives are not always drawn.
RESULT_TYPE: IC50 (nM)

Field: example entries. Status: answers known.
| COMPOUND | OBSERVED |
| --- | --- |
| CCCCOc1ccc(-c2cc(NC[C@H](O)c3ccccc3)ncn2)cc1F [Example 33, trifluoroacetic acid salt] | 270 |
| OC(CNc1cc(-c2ccc(C(F)(F)F)c(Cl)c2)ncn1)c1cc(C(F)(F)F)ccc1F (stereo not drawn) [Example 205] | 80 |
| Cc1nc(NC[C@H](O)c2ccccc2)cc(-c2ccc(Cl)c(Cl)c2)n1 [Example 155] | 60 |

1: O[C@@H](CNc1cc(-c2cc(F)c(OC(F)F)c(F)c2)ncn1)c1ccccc1 [Example 49, trifluoroacetic acid salt]
2: COc1ccc(C(O)CNc2cc(-c3ccc(C(F)(F)F)c(Cl)c3)ncn2)cc1Cl (stereo not drawn) [Example 203]
3: OC(CNc1cc(-c2cc3ccccc3s2)ncn1)c1ccccc1 (stereo not drawn) [Example 227]
Lookup: Sequence the entries by IC50, beginning with the highest number. API: response body holds the labels in the requested order.
Found: 2, 3, 1
(2: 270 nM, 3: 33 nM, 1: 2 nM)

a: CC(C)Oc1ccc(-c2cc(NC[C@H](O)c3ccccc3)ncn2)cc1F [Example 36, trifluoroacetic acid salt]
b: OC(CNc1cc(-c2ccc(C(F)(F)F)c(Cl)c2)ncn1)c1nccs1 (stereo not drawn) [Example 169]
Lookup: Which has the higher IC50, a or b ? Output the label that corresponds to your choice.
Found: b
(b: 6000 nM, a: 8 nM)

A: O=[N+]([O-])c1ccc(C(O)CNc2cc(-c3ccc(OC(F)(F)F)cc3)ncn2)cc1 (stereo not drawn) [Example 107]
B: O[C@@H](CNc1cc(-c2cccc(C(F)(C(F)(F)F)C(F)(F)F)c2)ncn1)c1ccccc1 [Example 220]
C: O[C@@H](CNc1cc(-c2ccc(OC(F)(F)F)c(F)c2)ncn1)c1ccc(F)cc1 [Example 174, trifluoroacetic acid salt]
D: Cc1cc(-c2cc(NC[C@H](O)c3ccccc3)ncn2)ccc1OC(C)C [Example 46]
E: NS(=O)(=O)c1ccc(-c2cc(NC[C@H](O)c3ccccc3)ncn2)cc1 [Example 81]
Lookup: Sequence the entries by IC50, beginning with the highest number. API: response body holds the labels in the requested order.
Found: A, E, B, D, C
(A: 240 nM, E: 110 nM, B: 42 nM, D: 13 nM, C: 2 nM)
